Where do these numbers come from? They come from the Immune Epitope Database (IEDB).

Experimental system: HLA-B*08:01
Method summary: IEDB peptide-MHC binding, purified MHC/direct/fluorescence; filed as Kd, often an IC50 or EC50 that approximates it; bounds were set here for any values at or beyond the usual limits of such assays
Condition details: source organism: Orthomarburgvirus marburgense
Value type: Kd

Task item: Endpoint output: Kd of `NQQVTNSKY` . Value?
Reply: ≥ 20 µM

###

Experimental system: HLA-A*29:02
Method summary: IEDB peptide-MHC binding, purified MHC/competitive/radioactivity; filed as Kd, often an IC50 or EC50 that approximates it; bounds were set here for any values at or beyond the usual limits of such assays
Condition details: source organism: Mammarenavirus lassaense
Value type: pKd
// pKd: -log10(molar conc.)

CFISVNDRLV	5.28

Please turn your attention to the following entry.
Task item: Look up pKd with HLA-A*29:02 for this sequence: `KTGECSKCY`
Reply: 4.99
